Literature IC50 values, system: Histone deacetylase 1 (Homo sapiens, UniProt Q13547).

Param readout = IC50; param system = Histone deacetylase 1 (Homo sapiens, UniProt Q13547); param query = `CC(=O)O[C@H]1CCN(c2ccc(C(=O)Nc3ccccc3N)cc2)C1` ; response: value
≤ 500 nM

Entry CCC(=O)CCCCC[C@H](NC(=O)CCC1CCCN(C)C1)c1ncc(-c2ccccc2)o1 (some centres unmarked) , system Histone deacetylase 1 (Homo sapiens, UniProt Q13547): what IC50 was measured?
100 to 1000 nM

Please state recorded IC50 (tested on Histone deacetylase 1 (Homo sapiens, UniProt Q13547)) of `CN1CCN(c2cnc(C(=O)Nc3cc(-c4cccs4)ccc3N)nc2)CC1`
1 to 10 nM

Could you share what IC50 was measured for `CC(C)(C)OC(=O)N1CCN(c2ccc3c(c2)C(C)(C)C(=O)N(Cc2ccc(-c4nnc(C(F)F)o4)cn2)C3=O)CC1` , tested on Histone deacetylase 1 (Homo sapiens, UniProt Q13547)?
> 10000 nM

Lab request: please report IC50 under test system Histone deacetylase 1 (Homo sapiens, UniProt Q13547) for `O=C(CCCCCCN(c1cnccn1)c1ncncc1F)NO`
> 1000 nM

Find IC50 (Histone deacetylase 1 (Homo sapiens, UniProt Q13547)) for the entry `Nc1ccccc1NC(=O)c1ccc(N2CC[C@H](NC(=O)OCc3ccccn3)C2)cc1`
≤ 500 nM

Enter reported IC50 observed with Histone deacetylase 1 (Homo sapiens, UniProt Q13547) for `CC(C)CN1CCN(c2ccc3c(c2)C(C)(C)C(=O)N(Cc2ccc(-c4nnc(C(F)F)o4)cn2)C3=O)CC1`
> 10000 nM

Item: CCC(=O)CCCCC[C@H](NC(=O)C1CCN(C)C1)c1ncc(-c2cc3ccccc3nc2OC)o1 (some centres unmarked) Test system: Histone deacetylase 1 (Homo sapiens, UniProt Q13547) Read-out: IC50 Value: ?
< 100 nM

// fetch Histone deacetylase 1 (Homo sapiens, UniProt Q13547) IC50 for `Nc1ccc(-c2cccs2)cc1NC(=O)c1ccc2ncn(CCN3CCOCC3)c2c1`
885 to 895 nM

State its IC50 on Histone deacetylase 1 (Homo sapiens, UniProt Q13547): `CN1CCN(c2cnc(C(=O)Nc3cc(-c4cccs4)ccc3N)cn2)CC1`
< 10 nM

Missing value: IC50, Histone deacetylase 1 (Homo sapiens, UniProt Q13547), entry `CN1CCN(c2ccc3cc(C(=O)Nc4cc(-c5nccn5C)ccc4N)cnc3c2)CC1` . Fill in?
> 2000 nM

// lookup IC50 | system=Histone deacetylase 1 (Homo sapiens, UniProt Q13547) | key= `Nc1ccccc1NC(=O)c1ccc(N2CC[C@H](O)C2)cc1`
≤ 1000 nM

Identify the measured IC50 of `Nc1ccc(-c2ccccc2)cc1NC(=O)c1ccc2c(c1)ncn2CCN1CCOCC1` for Histone deacetylase 1 (Homo sapiens, UniProt Q13547).
1 to 10 nM

Notebook: pull reported IC50 for Histone deacetylase 1 (Homo sapiens, UniProt Q13547), entry `CN1CCN(c2ccc3c(c2)C(C)(C)C(=O)N(Cc2ccc(-c4nnc(C(F)F)o4)cn2)C3=O)CC1`
> 10000 nM

Recall the recorded IC50 for `CC(=O)N1CCC(c2ccc3c(c2)C(=O)N(Cc2ccc(-c4nnc(C(F)F)o4)cn2)C(=O)C3(C)C)CC1` with Histone deacetylase 1 (Homo sapiens, UniProt Q13547) and state it.
> 10000 nM

Can you look up IC50 on Histone deacetylase 1 (Homo sapiens, UniProt Q13547) for `CN(C)Cc1cccc(OCCn2ccc3ccc(C(=O)NO)cc32)c1` ?
> 10000 nM

What reported IC50 corresponds to `CC(C)N1CCN(c2ccc3c(c2)C(C)(C)C(=O)N(Cc2ccc(-c4nnc(C(F)F)o4)cn2)C3=O)CC1` on Histone deacetylase 1 (Homo sapiens, UniProt Q13547)?
> 10000 nM

# get_value(readout= IC50, system= Histone deacetylase 1 (Homo sapiens, UniProt Q13547)) for `CCN1CCC(c2ccc3c(c2)C(C)(C)C(=O)N(Cc2ncc(-c4nnc(C(F)F)o4)cn2)C3=O)CC1`
> 10000 nM

Form field: IC50 recorded for `CNS(=O)(=O)Oc1ccc(-c2ccc(N)c(NC(=O)c3ccc(N4CCN(C)CC4)cn3)c2)cc1` with Histone deacetylase 1 (Homo sapiens, UniProt Q13547) (enter value)
1 to 10 nM

GET /values?readout=IC50&system=Histone deacetylase 1 (Homo sapiens, UniProt Q13547)&item= `CC1(C)C(=O)N(Cc2ccc(-c3nnc(C(F)F)o3)cn2)C(=O)c2ccc(C3CCN(C4CC5(COC5)C4)CC3)cc21`
> 10000 nM

----------
Field: IC50. System: UniProtKB Q13547. Provenance: assorted publications.
Please assign Not met whenever IC50 is at or above 80 nM, and Met whenever it is below.

is_below(IC50, 80 nM) for `CCN(CC)CCn1c(CC(C)(C)C)nc2cc(/C=C/C(=O)NO)ccc21` ?
Not met

Quick check: does `CC(C)(C)CCN(CCn1cnc2cc(/C=C/C(=O)NO)ccc21)CCC(C)(C)C` have IC50 under 80 nM?
Not met

IC50 under 80 nM? Item: CC(C)C[C@H](C(=O)N1CCC(Nc2ncc(C(=O)NO)cn2)(c2ccccc2)CC1)c1ccccc1 (stereo in doubt)
Not met

A record lists `COC(=O)c1ccc(O[C@H]2CCN(c3ccc(C(=O)Nc4ccccc4N)cc3)C2)cc1` . Is its IC50 below 80 nM?
Not met

Is the reported IC50 for `O=C(CCCCCCN(c1ccccn1)c1cc2ccccc2cn1)NO` strictly below 80 nM?
Met

Regarding `CC(C)(O)c1nn2ccccc2c1CCN1CCC[C@H]1c1ccc(CCC(=O)NO)cc1` , kindly confirm whether its IC50 is beneath 80 nM.
Met

----------
Consider the following IC50 data for Histone deacetylase 1 (Homo sapiens, UniProt Q13547), collected from several reports.
Your answer is read as nM, so omit the unit and give the number.

Which IC50 is reported for this compound? `COc1ccc(CN2CCC3(CCN(c4ccnc5c4ccn5Cc4ccc(C(=O)NO)cc4)CC3)C2)cc1`
240

// query IC50 value for entry `CCNCCn1c(CC(C)C)nc2cc(/C=C/C(=O)NO)ccc21`
91

Any idea what its IC50 is? The compound is `CC(C)(C)OC(=O)N1CCN(c2ccnc3c2ccn3Cc2ccc(C(=O)NO)cc2)CC1`
890

Tell me the measured IC50 of `Cc1cc(-c2nnc(Sc3ccc(C(=O)NO)cc3)n2C)nn1C` , please.
469

----------
pIC50: −log10 of the molar value.
// note: pIC50 values for Histone deacetylase 1 (Homo sapiens) were reported in different studies

Notebook entry, Histone deacetylase 1 (Homo sapiens) assay: pIC50 of `Nc1ccccc1NC(=O)c1ccc2c(cnn2Cc2cncc(F)c2)c1` = ?
> 6.00

Query pIC50 on Histone deacetylase 1 (Homo sapiens) for `CN1CCN(c2ccc3c(c2)C(=O)N(Cc2ccc(-c4nnc(C(F)F)o4)cn2)C(=O)C3(C)C)CC1`
< 5.00

So what pIC50 did `Nc1ccc(-c2ccc(F)cc2)cc1NC(=O)c1ccc2nc(N3CCNCC3)ccc2c1` get with Histone deacetylase 1 (Homo sapiens)?
> 8.00

----------
Multi-source literature compilation: IC50 on Histone deacetylase 1 (Homo sapiens, UniProt Q13547).

Return IC50 measured with Histone deacetylase 1 (Homo sapiens, UniProt Q13547) given this compound: O=C(/C=C/c1ccc(CN2CCCC(c3c(-c4ccccc4)[nH]c4ccccc34)C2)cc1)NO (stereo not drawn)
0.006 µM

Kindly state the measured IC50 obtained for `Cc1c(Cc2ccc(C(=O)NO)cc2)c2ccccc2n1CC1CCN(CC2(F)CCCCC2)CC1` with Histone deacetylase 1 (Homo sapiens, UniProt Q13547).
> 10 µM

Find the measured IC50: item `O=C(NO)c1ccc2ccn(CCOc3cccc(F)c3)c2c1` , target or system Histone deacetylase 1 (Homo sapiens, UniProt Q13547).
> 10 µM

----------
Below are IC50 measurements against Histone deacetylase 1 (Homo sapiens, UniProt Q13547) drawn from the literature.

Which IC50 reading was recorded for the compound `Nc1ccccc1NC(=O)c1ccc(N2CC[C@H](NC(=O)NCc3cccnc3)C2)cc1` ?
≤ 5000 nM

Given `Nc1ccc(-c2ccc(F)cc2)nc1NC(=O)c1ccc(N2CCC(N)CC2)nc1` , state its recorded IC50.
< 200 nM

I am curious: what IC50 value has been reported for `O=C(NO)c1ccc(NCc2cc(Cl)ccc2Cl)cc1` ?
100 to 200 nM

----------
IC50 values for Histone deacetylase 1 (Homo sapiens) compiled from several publications are listed below.

Entry `CN1CCN(c2ccc(C(=O)Nc3cc(-c4cccs4)ccc3N)nc2)CC1` : reported IC50 = ?
< 10 nM

Would you kindly share the measured IC50 for `CCC(=O)CCCCC[C@H](NC(=O)c1csc(CN(C)C)n1)c1ncc(-c2cc3ccccc3nc2OC)o1` ?
100 to 1000 nM

Fill in the blank: the reported IC50 of `CN(C)Cc1ccc(-c2ccc(S(=O)(=O)N3CC=C(C(=O)NO)CC3)cc2)cc1` is ____.
< 100 nM

Can you look up the measured IC50 of `CCC(=O)CCCCC[C@H](NC(=O)Cn1ccc(C)n1)c1ncc(-c2cc3ccccc3nc2OC)o1` for me?
< 100 nM

Form field: reported IC50 of `Nc1ccc(-c2cccs2)cc1NC(=O)c1ccc2c(c1)CC(=O)N2CCCN1CCOCC1`
1 to 10 nM
